target_or_system: human Gal-3 (hGal-3) (Homo sapiens (Human), UniProt P17931)
Sequence (P17931 whole entry): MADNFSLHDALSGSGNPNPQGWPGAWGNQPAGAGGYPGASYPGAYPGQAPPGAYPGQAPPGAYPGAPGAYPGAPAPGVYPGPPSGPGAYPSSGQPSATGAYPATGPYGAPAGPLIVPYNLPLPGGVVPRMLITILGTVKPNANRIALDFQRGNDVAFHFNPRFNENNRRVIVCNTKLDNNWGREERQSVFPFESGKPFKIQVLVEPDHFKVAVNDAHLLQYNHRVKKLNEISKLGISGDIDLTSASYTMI
protocol_summary: competitive binding assay: biotinylated hGal-3 binding to microplate-adsorbed asialofetuin (ASF)
experimental_context: Table 5; read-out: IC50 (Gal-3 inhibition)
Field 'label' (enum: met / not met). Set to met when IC50 is strictly under 200 nM; else not met.

compound	group
Cc1ccccc1C(S[C@@H]1O[C@H](CO)[C@H](O)[C@H](n2cc(-c3cc(F)c(F)c(F)c3)nn2)[C@H]1O)C1(O)CCCCC1 (some centres unmarked)	met
Cc1ccccc1[C@@H](S[C@@H]1O[C@H](CO)[C@H](O)[C@H](n2cc(-c3cc(F)c(F)c(F)c3)nn2)[C@H]1O)C1(O)CC(C)C1 (some centres unmarked) [Example 2.36.102R.]	not met
Cc1nc(C)c(C(S[C@@H]2O[C@H](CO)[C@H](O)[C@H](n3cc(-c4cc(F)c(F)c(F)c4)nn3)[C@H]2O)C2(O)CCOCC2)nc1C (some centres unmarked)	met
Cc1noc(C2CC2)c1[C@H](S[C@@H]1O[C@H](CO)[C@H](O)[C@H](n2cc(-c3cc(F)c(F)c(F)c3)nn2)[C@H]1O)C1(O)CCCCC1 [Example 2.39.128S.]	not met
CC(C)c1ccccc1C(S[C@@H]1O[C@H](CO)[C@H](O)[C@H](n2cc(-c3cc(F)c(F)c(F)c3)nn2)[C@H]1O)C1(O)CCC(F)(F)CC1 (some centres unmarked)	met
